Origin of values: PubChem BioAssay (EPA / NIEHS)

- protocol-description: ACEA_AR_agonist_AUC_viability: ACEA Biosciences xCELLigence Real-Time Cell Analysis on Androgen Receptor Agonism for Viability (AID 2283775)
- Method: ACEA_AR_agonist is a cell-based, single-readout assay that uses 22Rv1, a human prostate cancer cell line, with measurements taken at 80 hours after chemical dosing in a 384-well plate, although TO5 and TO6 (mc0.srcf) used a 96-well plate. Differences in plate size can be ignored given data normalization.ACEA_AR_80hr is one of two assay component(s) measured or calculated from the ACEA_AR assay. […]
Records with an inconclusive call do not appear. Calls of active or inactive are those of the source. How the source made its calls: active means hit-call score of the fitted dose curve at least 0.9, where 1 is the maximum; inconclusive means response in the unintended direction; inactive means score below 0.9.
Choose the fitting class; nothing outside active, inactive is accepted.

Could you check what this test reported for CCCCOC(=O)C(C)O (centres undefined) ?
inactive

Query: recorded result category for CCOC(OCC)OCC in this test
inactive

Which result was noted for this molecule in the test: CCc1cc(Cc2cc(CC)c(N)c(CC)c2)cc(CC)c1N
inactive

Status in this test for CCOC(=O)C1CC(=O)C(=C(O)C2CC2)C(=O)C1 (centres undefined) ?
inactive

Outcome logged for COCCOCCC[Si](C)(O[Si](C)(C)C)O[Si](C)(C)C in this assay:
inactive

Write down the call the test reported for this molecule. Item: CCCCCCCCCCCCC[N+](C)(C)Cc1ccccc1
active

Tell me the assay call for O=C1C=CC(=O)N1c1ccccc1 please.
inactive

Recorded call for N#Cc1ccccc1O ?
inactive

New cases:
So what was the verdict on Cc1ccc([N+](=O)[O-])c(C)c1 in this test?
inactive

# fetch the recorded call for CC(C)OC=O here
inactive

How did this test come out for CCN=c1cc2oc3cc(NCC)c(C)cc3c(-c3ccccc3C(=O)OCC)c-2cc1C ?
active

----------
- protocol-description: ATG_GRE_CIS: Attagene CIS-FACTORIAL HepG2 Assay for human Glucocorticoid Response Elements (GRE) (AID 2282947)
- test-context: HepG2 GRE cis-reporter, Attagene multiplex mRNA; actives raise or lower the signal
Activity calls are given as the source filed them. Rule for the calls: active = hit-call score of the fitted dose curve at least 0.9, where 1 is the maximum; inactive = score below 0.9.
Respond with a class label; see active, inactive

// return assay outcome for CCN(CC)c1ccc2c(c1)Oc1cc(N(CC)CC)ccc1C21OC(=O)c2ccccc21
inactive

What was the test verdict on NCC(F)(F)C(F)(F)C(F)(F)C(F)(F)C(F)(F)C(F)(F)F ?
inactive

Can you look up the reported call for CCc1ccc(C)nc1 for me?
inactive

Others:
Could you kindly confirm the outcome this assay logged for Brc1ccccn1 ?
inactive

For CC(C)OC=O , what call appears in the results of this test?
inactive

What classification did O=S(=O)(OCC(F)(F)F)C(F)(F)C(F)(F)C(F)(F)C(F)(F)F end up with in this test?
inactive

For Cc1ccc(S(=O)(=O)C(I)I)cc1 , which call appears in the assay record?
active

Dear all, I need the recorded test outcome for O=C1c2c(O)ccc(Nc3ccc(CCO)cc3)c2C(=O)c2c([N+](=O)[O-])ccc(O)c21 , thank you.
inactive

Per the assay record, what outcome was assigned to O=C1c2ccccc2C(=O)c2c(Cl)cccc21 ?
inactive

Could you kindly confirm the outcome this assay logged for FC(F)(F)C(F)(F)C(F)(F)C(F)(F)C(F)(F)C(F)(F)C(F)(F)CCI ?
inactive

----------
- protocol-description: ATG_XTT_Cytotoxicity: Cytotoxicity Assessment in the Attagene TRANS-FACTORIAL HepG2 Assay (AID 2283584)
Inconclusive results are not listed. Calls of active or inactive are those of the source. How the source made its calls: active means hit-call score of the fitted dose curve at least 0.9, where 1 is the maximum; inconclusive means response in the unintended direction; inactive means score below 0.9.
Response enum: active, inactive

Below, 5 molecules whose answers are already recorded.
Test call for this molecule, please: CCOC(C=C(C)CCC=C(C)C)OCC
inactive

# lookup: test call for CN1CN(C)CN(C)C1
inactive

Returns: the outcome recorded for CN(C)C(C)(C)CO in this assay.
inactive

I would be grateful if you could indicate the recorded call for CC(C)(C)C(=O)C1C(=O)c2ccccc2C1=O .
inactive

Look up the recorded call for F[Si-2](F)(F)(F)(F)F in this test.
inactive

Further cases:
Which outcome was assigned to CCC(C)CO (stereo not given) in this test?
inactive

For this molecule, state the assay outcome: CCN=c1cc2oc3cc(NCC)c(C)cc3c(-c3ccccc3C(=O)OCC)c-2cc1C
active

Dear all, I need the recorded test outcome for CCCCCCCCCCCCCC[P+](CCCC)(CCCC)CCCC , thank you.
active

Each molecule tested received a call. Report the one for Oc1ccc2c(c1)CCC2 .
inactive

// return assay outcome for O=c1[nH]cccc1O
inactive

Outcome logged for Cc1cc(O)c(C(C)(C)C)cc1C(C)(C)C in this assay:
inactive

# fetch the recorded call for COc1ccccc1C=O here
inactive

Called result for CC(=O)c1ccccc1N
inactive

Which outcome was assigned to CCC/C=C/CO in this test?
inactive

Look up the recorded call for CCOCN(C(=O)CS(=O)(=O)O)c1c(C)cccc1CC in this test.
inactive
